system-name: T1, native cynomolgus monkey CD30L on activated T cells (cynomolgus monkey, UniProt A0A7N9CVX7 1-234)
T1 construct: whole, on cells; also called cynomologous CD30L
T1 sequence: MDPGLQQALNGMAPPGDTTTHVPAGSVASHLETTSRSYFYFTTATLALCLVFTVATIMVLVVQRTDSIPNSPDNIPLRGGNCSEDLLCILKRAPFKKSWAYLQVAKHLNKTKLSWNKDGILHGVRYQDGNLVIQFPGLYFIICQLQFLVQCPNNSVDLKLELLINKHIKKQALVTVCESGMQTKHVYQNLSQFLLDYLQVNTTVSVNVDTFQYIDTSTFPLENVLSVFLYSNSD
method: FACS, native cyno CD30L on activated cynomolgus T cells
In this section, each of the binders is paired with its reported EC50.
reported-metric: EC50

binder	observed-result
Antibody F (antibody, V domains shown, also called mAb F) VH: QVQLQESGPGLVKPSETLSLTCTVSGGSISSYYWSWIRQPAGKGLEWIGRIFASGSTNYNPSLRSRVTMSRDTSKNQFSLKLSSVTAADTAVYYCAKERVGVQDYYHYSGMDVWGQGTTVTVSS VL: QSALTQPASVSGSPGQSITISCTGTSSDVGLYNYVSWYQQQPGKAPKLMIYEVSKRPSGVSNRFSGSTSGNTASLTISGLQADDEADYSCSSYTSSSTWVFGGGTKLTVL	2.9 nM
Antibody A (antibody, V domains shown, Human antibody (XenoMouse); also called mAb A; anti-hCD30L A) VH: QVQLQESGPGLVKPSETLSLTCTVSGGSISSYIWSWIRQPAGKGLEWIGRIYASGNTNYNPSLKSRVTMSVDTSKNQFSLKLSSMTAADTAVYYCARDYRVAGTYYYYYGLDVWGQGTTVTVSS VL: QSALTQPASVSGSPGQSITISCTGTSSDVGVYDYVSWYQQHPGKAPKLMIYEVSNRPSGVSNRFSGSKSGNTASLTISGLQTEDEADYYCSSYTSRSTWVFGGGTKLTVL	2.2 nM
